These measurements were taken from patent US20230094146A1.

Target protein (sequence): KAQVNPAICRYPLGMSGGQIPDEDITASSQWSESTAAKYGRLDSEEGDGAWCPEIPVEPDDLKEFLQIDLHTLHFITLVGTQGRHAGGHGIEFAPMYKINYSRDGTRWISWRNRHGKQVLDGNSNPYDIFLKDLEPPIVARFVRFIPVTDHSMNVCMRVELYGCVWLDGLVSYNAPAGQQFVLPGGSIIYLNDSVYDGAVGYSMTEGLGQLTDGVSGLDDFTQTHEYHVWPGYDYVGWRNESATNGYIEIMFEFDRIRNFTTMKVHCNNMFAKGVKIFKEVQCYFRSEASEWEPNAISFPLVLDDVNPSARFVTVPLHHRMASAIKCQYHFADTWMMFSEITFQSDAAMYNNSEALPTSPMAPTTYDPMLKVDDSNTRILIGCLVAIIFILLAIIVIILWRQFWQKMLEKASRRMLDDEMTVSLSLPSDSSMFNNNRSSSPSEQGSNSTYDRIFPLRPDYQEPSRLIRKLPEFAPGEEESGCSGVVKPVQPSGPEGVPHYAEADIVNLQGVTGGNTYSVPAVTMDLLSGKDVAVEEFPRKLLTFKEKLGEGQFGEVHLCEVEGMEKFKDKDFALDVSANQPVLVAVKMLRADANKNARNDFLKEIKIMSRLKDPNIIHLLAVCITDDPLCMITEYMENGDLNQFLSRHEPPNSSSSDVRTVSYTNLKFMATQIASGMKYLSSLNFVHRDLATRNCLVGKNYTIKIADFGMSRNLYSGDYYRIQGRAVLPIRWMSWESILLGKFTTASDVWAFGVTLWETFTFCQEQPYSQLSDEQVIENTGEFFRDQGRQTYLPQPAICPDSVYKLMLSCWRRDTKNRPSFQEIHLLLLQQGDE
Where a name gives a salt, the structure may show the parent alone.
Field: pIC50. Provide a value for each of the compounds that follow.
Worth noting: pIC50 values are minus log10 of concentrations stated in mol/L.

[in] # pIC50 lookup, item [2H]C([2H])([2H])OC([2H])([2H])CNCc1ccc(-c2cc3nccc(Oc4ccc(NC(=O)C5(C(=O)Nc6ccc(F)cc6)CC5)cc4F)c3s2)nc1 [Hydrochloride of 002]
[out] 8.94

[in] Please look up its pIC50: [2H]C([2H])([2H])OCCNCc1ccc(-c2cc3nccc(Oc4ccc(NC(=O)C5(C(=O)Nc6ccc(F)cc6)CC5)cc4F)c3s2)nc1 [Trifluoroacetate of 001]
[out] 9.10
